- test method notes: in vitro
- study conditions: human, Caco-2 cells
Where a SMILES comes first, the peptide text is derived from it. The star is where a group is joined. Myristoyl = CCCCCCCCCCCCCC(=O)*
measurement label: viability at 24 h, 100 µM (%)
Enter your answer as a number in %; do not include the unit.

[[record]]
molecule = "CCCCCCCCCCCCCC(=O)N[C@@H](C)C(=O)N[C@@H](CCCNC(=N)N)C(=O)N[C@@H](CCCNC(=N)N)C(=O)N[C@@H](Cc1c[nH]c2ccccc12)C(=O)N[C@@H](CCCNC(=N)N)C(=O)O [Peptide P1, Myr-ARRWR] (Myristoyl-ARRWR-OH)"
unit_abbrev = "%"
endpoint_value = 76.7


Attention now shifts to the item below.
Req: Entry under review: CCCCCCCCCCCCCC(=O)N[C@@H](CO)C(=O)N[C@H](C(=O)N[C@@H](Cc1ccc(O)cc1)C(=O)N[C@@H](CCCNC(=N)N)C(=O)N[C@@H](CCCNC(=N)N)C(=O)NCC(=O)N[C@@H](C)C(=O)N[C@@H](CCCNC(=N)N)C(=O)N[C@@H](CCCNC(=N)N)C(=O)N[C@@H](Cc1c[nH]c2ccccc12)C(=O)N[C@@H](CCCNC(=N)N)C(=O)N[C@@H](CCCCN)C(=O)N[C@@H](CC(C)C)C(=O)O)[C@@H](C)CC [Peptide C1, reference compound] (Myristoyl-SIYRRGARRWRKL-OH; C-terminus assumed) . Reported viability at 24 h, 100 µM?
Resp: 34

# credit: patent US20210246164A1
